- test: Clearance in Han-Wistar rat at 2 mg/kg, iv measured after 2 to 480 mins by LC-MS/MS analysis
- Format: ADME, organism-based
- test_conditions: in vivo
assay_readout: clearance (mL/min/kg)
Please give a number only; it is taken to be in mL/min/kg.

Prompt: Please look up its clearance: C[C@@H]1CN(c2cc(-c3n[nH]c4ccc(OC5(C)CC5)cc34)ncn2)C[C@H](C)O1 [MLi-2]
Completion: 153

----------
- Tested on: Mus musculus
- test: In vivo inhibition of LRRK2 Ser935 phosphorylation in mouse brain assessed as unbound brain concentration causing reduction in ratio of phosphorylated Ser935 to total LRRK2 protein at 1 to 100 mg/kg, po administered 1 hr post treatment by Western blot analysis
- Type: functional, organism-based
assay_readout: IC50 (pM)
Supply the numeric figure in pM, leaving out any unit text.

Prompt: Which IC50 is listed for "C[C@@H]1CN(c2cc(-c3n[nH]c4ccc(OC5(C)CC5)cc34)ncn2)C[C@H](C)O1" ?
Completion: 800

----------
- Tested on: MDR1 (human)
- test: Apparent permeability in pig LLC-PK1 cells expressing human MDR1
- Assay type: ADME, cell-based, Sus scrofa
Attribute: Papp
Mention the unit after the number when you answer.

Here's what some known entries look like.
CC1(Oc2ccc3[nH]nc(-c4cc(N5CCOCC5)ncn4)c3c2)CC1 | 35 ×10⁻⁶ cm/s
CC(C)Oc1ccc2[nH]nc(-c3ccnc(N4CCN(C)CC4)c3)c2c1 | 27 ×10⁻⁶ cm/s
CC(C)Oc1ccc2[nH]nc(-c3ccnc(N4CCN(C)C(=O)C4)c3)c2c1 | 38 ×10⁻⁶ cm/s
C[C@H]1CN(c2cc(-c3n[nH]c4ccc(OC5(C)CC5)cc34)ncn2)CCO1 | 27 ×10⁻⁶ cm/s
CC(C)Oc1ccc2[nH]nc(-c3cc(N4CCOCC4)ncn3)c2c1 | 38 ×10⁻⁶ cm/s

Prompt: Which Papp reading was recorded for the compound "C[C@@H]1CN(c2cc(-c3n[nH]c4ccc(OC5(C)CC5)cc34)ncn2)CCO1" ?
Completion: 28 ×10⁻⁶ cm/s

Prompt: Which Papp value is on record for "CC(C)Oc1ccc2[nH]nc(-c3ccnc(N4CCC(n5cnnc5)CC4)c3)c2c1" ?
Completion: 46 ×10⁻⁶ cm/s

Prompt: What value of measured Papp is listed for "Cn1cc(-c2ccc3[nH]nc(-c4ccnc(N5CCOCC5)c4)c3c2)cn1" ?
Completion: 38 ×10⁻⁶ cm/s

Prompt: State the recorded Papp for this entry: "CC(C)Oc1ccc2[nH]nc(-c3ccnc(N4CCOCC4)c3)c2c1"
Completion: 30 ×10⁻⁶ cm/s

----------
- test: AUC (0 to 8 hrs) in Han-Wistar rat at 10 mg/kg, po measured after 15 to 480 mins by LC-MS/MS analysis
- Assay type: ADME, organism-based
- Design: dose 10 mg/kg, time < 8 hr, route oral
- test_conditions: in vivo
assay_readout: AUC(0-t) at 8 h
Could you write the number and then its unit?

Prompt: Fill in the blank: the reported AUC(0-t) at 8 h of "C[C@@H]1CN(c2cc(-c3n[nH]c4ccc(OC5(C)CC5)cc34)ncn2)C[C@H](C)O1" is ____.
Completion: 1.3 µM·h

----------
- test: Oral bioavailability in Han-Wistar rat at 10 mg/kg, measured after 15 to 480 mins by LC-MS/MS analysis
- Type: ADME, organism-based
- test_conditions: in vivo
assay_readout: bioavailability
Mention the unit after the number when you answer.

Prompt: Need bioavailability, item "C[C@@H]1CN(c2cc(-c3n[nH]c4ccc(OC5(C)CC5)cc34)ncn2)C[C@H](C)O1"
Completion: 39%

----------
- measured_target: Cytochrome P450 3A4 (Homo sapiens, UniProt P08684)
- Sequence (P08684 whole entry): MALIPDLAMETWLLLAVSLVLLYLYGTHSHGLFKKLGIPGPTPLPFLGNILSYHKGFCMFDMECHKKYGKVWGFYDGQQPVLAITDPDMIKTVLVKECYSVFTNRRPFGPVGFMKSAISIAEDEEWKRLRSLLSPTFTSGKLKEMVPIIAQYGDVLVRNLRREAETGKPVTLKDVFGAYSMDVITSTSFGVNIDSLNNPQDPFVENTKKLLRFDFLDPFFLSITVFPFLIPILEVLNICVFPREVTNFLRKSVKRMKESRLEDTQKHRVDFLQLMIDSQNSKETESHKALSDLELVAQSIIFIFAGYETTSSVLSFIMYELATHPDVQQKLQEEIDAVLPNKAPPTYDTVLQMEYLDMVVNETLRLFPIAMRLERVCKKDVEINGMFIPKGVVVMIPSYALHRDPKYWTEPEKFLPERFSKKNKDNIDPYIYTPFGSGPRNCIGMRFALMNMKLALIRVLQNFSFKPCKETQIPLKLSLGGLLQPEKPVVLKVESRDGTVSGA
assay_readout: IC50

Prompt: Form: Entry = C[C@@H]1CN(c2cc(-c3n[nH]c4ccc(OC5(C)CC5)cc34)ncn2)C[C@H](C)O1 [MLi-2] | System = Cytochrome P450 3A4 (Homo sapiens, UniProt P08684) | IC50 = ____
Completion: > 50 µM

----------
- test: Efflux ratio of permeability […] in pig LLC-PK1 cells expressing human MDR1
- Assay type: ADME, cell-based, Sus scrofa
Where Ratio equals or exceeds 0.4, the correct label is Yes; where it does not, the label is No.

These solved cases illustrate the format of a correct answer.
CC(C)Oc1ccc2[nH]nc(-c3ccnc(N4CCN(C)CC4)c3)c2c1 | Yes
c1cc(-c2n[nH]c3ccc(C4CC4)cc23)cc(N2CCOCC2)n1 | No
CC1(Oc2ccc3[nH]nc(-c4cc(N5CCN(S(C)(=O)=O)CC5)ncn4)c3c2)CC1 | Yes
C[C@@H]1CN(c2cc(-c3n[nH]c4ccc(OC5(C)CC5)cc34)ncn2)CCO1 | No
COc1ccc2[nH]nc(-c3ccnc(N4CCOCC4)c3)c2c1 | No
C[C@H]1CN(c2cc(-c3n[nH]c4ccc(OC5(C)CC5)cc34)ncn2)CCO1 | Yes
O=S(=O)(c1ccc2[nH]nc(-c3ccnc(N4CCOCC4)c3)c2c1)C1CC1 | Yes
c1cnnc(-c2ccc3[nH]nc(-c4ccnc(N5CCOCC5)c4)c3c2)c1 | Yes
CC(C)Oc1ccc2[nH]nc(-c3ccnc(N4CCN(C)C(=O)C4)c3)c2c1 | Yes
c1cc(-c2n[nH]c3ccc(OC4CC4)cc23)cc(N2CCOCC2)n1 | No

Prompt: Test whether the compound "Cn1cc(-c2ccc3[nH]nc(-c4ccnc(N5CCOCC5)c4)c3c2)cn1" records Ratio of 0.4 or higher.
Completion: Yes

Prompt: Evaluate "CC(C)Oc1ccc2[nH]nc(-c3ccnc(N4CCC(n5cnnc5)CC4)c3)c2c1" : Ratio at minimum 0.4?
Completion: Yes

Prompt: Determine whether measured Ratio meets or exceeds 0.4 for "CC(C)Oc1ccc2[nH]nc(-c3ccnc(N4CCOCC4)c3)c2c1"
Completion: Yes

Prompt: Quick check, Ratio >= 0.4? "CC(C)Oc1ccc2[nH]nc(-c3cc(N4CCOCC4)ncn3)c2c1"
Completion: Yes

Prompt: Does the compound "N#Cc1ccc2[nH]nc(-c3ccnc(N4CCOCC4)c3)c2c1" have recorded Ratio that is 0.4 or more?
Completion: Yes

Prompt: Answer whether Ratio of "c1ccc2c(-c3ccnc(N4CCOCC4)c3)n[nH]c2c1" is greater than or equal to 0.4.
Completion: No

----------
- measured_target: Leucine-rich repeat serine/threonine-protein kinase 2 (Homo sapiens, UniProt Q5S007, G2019S)
- Sequence (Q5S007 whole entry G2019S): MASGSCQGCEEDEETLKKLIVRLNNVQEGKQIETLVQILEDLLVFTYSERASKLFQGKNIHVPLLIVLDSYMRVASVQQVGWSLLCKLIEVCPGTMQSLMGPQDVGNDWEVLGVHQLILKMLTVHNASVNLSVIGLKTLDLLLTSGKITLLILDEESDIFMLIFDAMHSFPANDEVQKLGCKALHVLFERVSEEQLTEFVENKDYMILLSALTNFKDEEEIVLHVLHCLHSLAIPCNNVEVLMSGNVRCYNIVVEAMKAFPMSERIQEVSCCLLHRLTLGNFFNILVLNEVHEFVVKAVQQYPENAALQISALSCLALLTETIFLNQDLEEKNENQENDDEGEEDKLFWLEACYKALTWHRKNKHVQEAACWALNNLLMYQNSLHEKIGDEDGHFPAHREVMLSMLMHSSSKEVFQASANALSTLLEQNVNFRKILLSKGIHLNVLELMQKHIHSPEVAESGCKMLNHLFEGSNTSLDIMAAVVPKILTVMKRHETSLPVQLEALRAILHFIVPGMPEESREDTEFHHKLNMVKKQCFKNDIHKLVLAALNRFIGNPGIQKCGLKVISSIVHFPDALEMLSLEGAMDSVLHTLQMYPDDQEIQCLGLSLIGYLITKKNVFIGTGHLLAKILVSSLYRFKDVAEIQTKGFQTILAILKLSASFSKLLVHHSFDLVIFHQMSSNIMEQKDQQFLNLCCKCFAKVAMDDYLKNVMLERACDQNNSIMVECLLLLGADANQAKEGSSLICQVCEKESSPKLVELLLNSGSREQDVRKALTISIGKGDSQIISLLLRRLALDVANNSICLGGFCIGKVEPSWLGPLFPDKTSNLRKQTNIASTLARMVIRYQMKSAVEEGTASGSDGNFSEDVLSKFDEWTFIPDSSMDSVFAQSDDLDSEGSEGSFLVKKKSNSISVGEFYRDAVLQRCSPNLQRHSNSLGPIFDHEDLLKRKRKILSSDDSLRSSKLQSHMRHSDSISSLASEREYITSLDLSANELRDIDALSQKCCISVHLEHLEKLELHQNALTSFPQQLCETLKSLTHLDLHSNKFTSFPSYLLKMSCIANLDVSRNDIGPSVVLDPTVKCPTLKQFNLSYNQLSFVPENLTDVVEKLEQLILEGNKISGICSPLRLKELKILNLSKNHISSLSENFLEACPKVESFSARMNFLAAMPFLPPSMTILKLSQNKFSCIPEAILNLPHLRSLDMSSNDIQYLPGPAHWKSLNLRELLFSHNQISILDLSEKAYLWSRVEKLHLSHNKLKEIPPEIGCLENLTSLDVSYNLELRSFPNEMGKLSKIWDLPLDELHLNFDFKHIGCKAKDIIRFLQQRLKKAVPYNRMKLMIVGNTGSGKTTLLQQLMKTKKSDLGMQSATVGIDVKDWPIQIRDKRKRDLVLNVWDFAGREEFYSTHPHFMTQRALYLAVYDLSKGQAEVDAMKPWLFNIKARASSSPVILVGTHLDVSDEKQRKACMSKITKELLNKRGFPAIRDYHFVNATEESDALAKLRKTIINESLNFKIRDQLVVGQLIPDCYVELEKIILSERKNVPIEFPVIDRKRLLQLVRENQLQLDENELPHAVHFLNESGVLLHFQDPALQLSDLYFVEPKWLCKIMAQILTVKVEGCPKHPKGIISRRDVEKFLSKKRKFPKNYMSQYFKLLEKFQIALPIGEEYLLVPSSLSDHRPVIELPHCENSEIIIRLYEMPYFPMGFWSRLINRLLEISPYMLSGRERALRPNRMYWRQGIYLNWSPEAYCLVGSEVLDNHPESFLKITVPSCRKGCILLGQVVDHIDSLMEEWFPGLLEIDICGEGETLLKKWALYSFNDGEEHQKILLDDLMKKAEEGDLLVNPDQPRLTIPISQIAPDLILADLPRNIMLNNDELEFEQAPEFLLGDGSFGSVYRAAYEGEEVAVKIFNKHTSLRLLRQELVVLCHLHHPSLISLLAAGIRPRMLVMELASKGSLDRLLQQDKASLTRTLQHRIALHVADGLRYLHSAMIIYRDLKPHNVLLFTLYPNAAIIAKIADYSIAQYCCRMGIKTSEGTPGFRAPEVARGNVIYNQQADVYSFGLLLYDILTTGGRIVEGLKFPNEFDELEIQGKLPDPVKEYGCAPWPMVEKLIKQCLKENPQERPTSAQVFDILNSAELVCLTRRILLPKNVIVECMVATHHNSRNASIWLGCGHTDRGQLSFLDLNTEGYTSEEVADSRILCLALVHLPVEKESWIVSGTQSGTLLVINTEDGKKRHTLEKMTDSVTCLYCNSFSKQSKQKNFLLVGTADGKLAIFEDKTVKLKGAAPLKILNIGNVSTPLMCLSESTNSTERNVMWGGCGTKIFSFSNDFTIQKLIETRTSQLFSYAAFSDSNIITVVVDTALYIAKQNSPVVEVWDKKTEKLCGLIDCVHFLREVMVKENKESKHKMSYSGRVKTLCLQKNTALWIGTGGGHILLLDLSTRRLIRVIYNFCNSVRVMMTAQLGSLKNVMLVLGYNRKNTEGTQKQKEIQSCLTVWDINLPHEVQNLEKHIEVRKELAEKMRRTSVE
- test: Inhibition LRRK2 G2019S mutant Ser935 phosphorylation in human SH-SY5Y cells after 90 mins by Western blot analysis
- Type: cell-based
assay_readout: IC50 (nM)
Give just the numeric value; nM need not be written.

Take a look at these entries with their results.
CC(C)Oc1ccc2[nH]nc(-c3ccnc(N4CCC(n5cnnc5)CC4)c3)c2c1 | 194
CC(C)Oc1ccc2[nH]nc(-c3ccnc(N4CCOCC4)c3)c2c1 | 43
C[C@@H]1CN(c2cc(-c3n[nH]c4ccc(OC5(C)CC5)cc34)ncn2)CCO1 | 5
CC(C)Oc1ccc2[nH]nc(-c3ccnc(N4C[C@@H](F)[C@H](F)C4)c3)c2c1 | 341
CC(C)Oc1ccc2[nH]nc(-c3ccnc(N4CCN(S(C)(=O)=O)CC4)c3)c2c1 | 83

Now let's try a different one.
Prompt: # input compound: "CC1(Oc2ccc3[nH]nc(-c4cc(N5CCN(S(C)(=O)=O)CC5)ncn4)c3c2)CC1" ; wanted: its IC50
Completion: 7.6

----------
- test: Efflux ratio of permeability […] in pig LLC-PK1 cells expressing rat MDR1
- Assay type: ADME, cell-based, Sus scrofa
Classification field: met = Ratio at or over 10; not met = Ratio under 10.

For orientation, consider the following solved cases.
c1cnnc(-c2ccc3[nH]nc(-c4ccnc(N5CCOCC5)c4)c3c2)c1 | met
CC(C)Oc1ccc2[nH]nc(-c3ccnc(N4CCC(n5cnnc5)CC4)c3)c2c1 | met
c1cc(-c2n[nH]c3ccc(C4CC4)cc23)cc(N2CCOCC2)n1 | not met
c1ccc2c(-c3ccnc(N4CCOCC4)c3)n[nH]c2c1 | not met
CC1(Oc2ccc3[nH]nc(-c4cc(N5CCN(S(C)(=O)=O)CC5)ncn4)c3c2)CC1 | met
C[C@@H]1CN(c2cc(-c3n[nH]c4ccc(OC5(C)CC5)cc34)ncn2)CCO1 | not met
O=S(=O)(c1ccc2[nH]nc(-c3ccnc(N4CCOCC4)c3)c2c1)C1CC1 | met
CC(C)Oc1ccc2[nH]nc(-c3cc(N4CCOCC4)ncn3)c2c1 | not met

Prompt: Kindly determine if Ratio recorded for "Cn1cc(-c2ccc3[nH]nc(-c4ccnc(N5CCOCC5)c4)c3c2)cn1" is above or exactly 10.
Completion: not met

Prompt: Entry "CC(C)Oc1ccc2[nH]nc(-c3ccnc(N4CCOCC4)c3)c2c1" : is its Ratio no less than 10?
Completion: not met

Prompt: I'd appreciate it if you could say whether "CC(C)Oc1ccc2[nH]nc(-c3ccnc(N4CCN(C)CC4)c3)c2c1" has Ratio at least equal to 10.
Completion: not met

Prompt: Is the recorded value of Ratio equal to or greater than 10 for this molecule? "CC(C)Oc1ccc2[nH]nc(-c3ccnc(N4CCN(S(C)(=O)=O)CC4)c3)c2c1"
Completion: not met

Prompt: Please indicate if the recorded Ratio for "CC(C)Oc1ccc2[nH]nc(-c3ccnc(N4CCN(C)C(=O)C4)c3)c2c1" meets or exceeds 10.
Completion: met
